Just for reference, the Deep4Chem optical property database is where these values come from.

- PROCEDURE SUMMARY: photoluminescence quantum yield (fraction); solvent given as SMILES
- TEST SETTINGS: in CO
READOUT TYPE: photoluminescence quantum yield
Answers are plain numbers.

[
  {
    "MOLECULE": "N#Cc1c(-n2cc(-c3ccccc3)nn2)n([C@H]2C[C@H](O)[C@@H](CO)O2)c2ncnc(N)c12",
    "photoluminescence quantum yield": 0.004
  },
  {
    "MOLECULE": "O=c1c2ccccc2sc2ccccc12",
    "photoluminescence quantum yield": 0.25
  },
  {
    "MOLECULE": "CC[N+]1=C(/C=C/C=C/C=C/C=C2/N(CCCCCC(=O)O)c3ccc(S(=O)(=O)[O-])cc3C2(C)C)C(C)(C)c2cc(S(=O)(=O)[O-])ccc21",
    "photoluminescence quantum yield": 0.52
  },
  {
    "MOLECULE": "c1coc(-c2nc3ccccc3[nH]2)c1",
    "photoluminescence quantum yield": 0.97
  },
  {
    "MOLECULE": "COC(=O)COc1ccc(/C=C/C2=[N+]3C(=C(c4ccccc4)c4c(C)cc(C)n4[B-]3(F)F)C(C)=C2)cc1",
    "photoluminescence quantum yield": 1
  },
  {
    "MOLECULE": "C(=C\\c1c[nH]c2ccc(Oc3ccccc3)cc12)/C1=[NH+]c2cccc3cccc1c23",
    "photoluminescence quantum yield": 0.0644
  }
]

List reported photoluminescence quantum yield for each of these molecules:
1. CN(C)c1ccc2nc(-c3ccc(/C=N/Nc4ccccc4)cc3)sc2c1
2. Cc1ccc(C2CC(c3ccc(O)cc3)=NN2c2ccc(S(N)(=O)=O)cc2)cc1 (stereo not given)
3. COC(=O)c1nc2cnc(N)nc2n1Cc1ccccc1
4. c1ccc2cc(-n3c4ccccc4c4ccccc43)ccc2c1

**A:**
[0.026, 0.33, 0.87, 0.32]

---

- PROCEDURE SUMMARY: photoluminescence quantum yield (fraction); solvent given as SMILES
- TEST SETTINGS: in CC#N
Threshold-based label: photoluminescence quantum yield under 0.1 gives T, photoluminescence quantum yield not under 0.1 gives F.

Example entries and their recorded answers appear below.
[
  {
    "COMPOUND": "CC(C)(C)C1Nc2ccccc2C(=O)N1Cc1ccccc1 (stereo not given)",
    "ANSWER LABEL": "T"
  },
  {
    "COMPOUND": "CC(=O)c1ccc(/C=C/C=C/C2=NC3C(=O)NC(N)=NC3N2[C@H]2C[C@H](O)[C@@H](CO)O2)cc1 (stereo not given in full)",
    "ANSWER LABEL": "F"
  },
  {
    "COMPOUND": "CN(C)c1ccc(C2=Nc3sc4cc(F)ccc4[n+]3[B-](F)(F)O2)cc1",
    "ANSWER LABEL": "F"
  },
  {
    "COMPOUND": "CC1=C(c2ccccc2)C2=Cc3c(-c4ccccc4)c(C)c(C)n3[B-](F)(F)[N+]2=C1C",
    "ANSWER LABEL": "F"
  }
]

With those in mind, consider the next compound.
**Q:** Check if photoluminescence quantum yield falls below 0.1 for Clc1nc(Cl)nc(Nc2cc3ccc4cccc5ccc(c2)c3c45)n1 .
**A:** T

---

- PROCEDURE SUMMARY: photoluminescence quantum yield (fraction); solvent given as SMILES
- TEST SETTINGS: in ClC(Cl)Cl
READOUT TYPE: photoluminescence quantum yield
Give bare numbers.

Use the examples below as a reference point.
[
  {
    "MOLECULE": "COc1ccc(C#Cc2ccc(C#N)cc2)cc1OC",
    "photoluminescence quantum yield": 0.18
  },
  {
    "MOLECULE": "CN(C)c1ccc2nc(-c3ccc(C=O)cc3)sc2c1",
    "photoluminescence quantum yield": 0.85
  },
  {
    "MOLECULE": "CC(C)(C)c1ccc2oc3nc4oc5ccc(N(c6ccccc6)c6ccccc6)cc5c4cc3c2c1",
    "photoluminescence quantum yield": 0.083
  },
  {
    "MOLECULE": "CCCCCCCCC1(CCCCCCCC)c2cc(-c3ccccc3)ccc2-c2ccc(-c3ccccc3)cc21",
    "photoluminescence quantum yield": 0.85
  },
  {
    "MOLECULE": "Cc1nc2c(ccc3c2sc(/C=C/C=C/c2ccc(N(C)C)cc2)[n+]3C)s1",
    "photoluminescence quantum yield": 0.16
  },
  {
    "MOLECULE": "N#Cc1cc2ccc3cc(C#N)c4ccccc4c3c2c2ccccc12",
    "photoluminescence quantum yield": 0.14
  },
  {
    "MOLECULE": "O=CC1=Cc2cocc2C=C(C=O)C1",
    "photoluminescence quantum yield": 0
  },
  {
    "MOLECULE": "CC(C)(C)c1cccc2c1oc1nc3oc4ccc(-n5c6ccccc6c6ccccc65)cc4c3cc12",
    "photoluminescence quantum yield": 0.072
  },
  {
    "MOLECULE": "F[Si](c1c2ccccc2cc2ccccc12)(c1c2ccccc2cc2ccccc12)c1c2ccccc2cc2ccccc12",
    "photoluminescence quantum yield": 0.036
  },
  {
    "MOLECULE": "COc1ccc(OC)c(C=O)c1",
    "photoluminescence quantum yield": 0.01
  }
]

List reported photoluminescence quantum yield for each of these molecules:
1. Cc1ccc(N(c2ccc(C)cc2)c2ccc(-c3ccc(C=C(C#N)C#N)s3)cc2)cc1
2. COc1ccc(C2=c3sc(-c4ccc(OC)cc4)cc3=[N+]3C2=Nc2c(-c4ccc(OC)cc4)c4sc(-c5ccc(OC)cc5)cc4n2[B-]3(F)F)cc1
3. CCCCCCCCCCCCOc1cc2c3c(ccc4c5c(NC6CCCCC6)cc6c7c(ccc(c1c34)c75)C(=O)N(C1CCCCC1)C6=O)C(=O)N(C1CCCCC1)C2=O
4. COc1cc(/C=C/c2nc3ccccc3s2)c(OC)cc1/C=C/c1nc(C)nc(/C=C/c2cc(OC)c(/C=C/c3nc4ccccc4s3)cc2OC)n1
5. CCCN1c2ccccc2Sc2cc(/C=C\c3cc(=O)oc4cc(C)c(Cl)cc34)ccc21

**A:**
1. 0.07
2. 0.1
3. 0.01
4. 0.5
5. 0.77

List reported photoluminescence quantum yield for each of these molecules:
1. FC(F)(F)c1ccc(-c2nc(-c3ccc(C(F)(F)F)cc3)n3ccccc23)cc1
2. COCCOCCOCCNc1cc2c3c(c(NCCOCCOCCOC)cc4c3c1C(=O)N(CCOCCOCCOC)C4=O)C(=O)N(CCOCCOCCOC)C2=O
3. CCCCC(CC)CN1C(=O)c2cccc3c(C#Cc4ccc(N(c5ccccc5)c5ccccc5)cc4)ccc(c23)C1=O (stereo not drawn)
4. Cc1c2c(c(C)c3ccccc13)C1=CC3Nc4ccccc4NC3C=C12 (stereo not drawn)

**A:**
1: 0.16; 2: 0.56; 3: 0.51; 4: 0.02

List reported photoluminescence quantum yield for each of these molecules:
1. CCCCOc1ccc(-c2cc3c(o2)c(-c2ccc(OCCCC)cc2)c2n3[B-](F)(F)[N+]3=Cc4c(-c5ccc(OCCCC)cc5)c5oc(-c6ccc(OCCCC)cc6)cc5n4[B-](F)(F)[N+]3=C2)cc1
2. CCCCCCCCOc1ccc(-c2c3c4n(c(-c5ccc(OCCCCCCCC)cc5)c3c3n2[B-](F)(F)[n+]2c(ccc5cc(C(C)(C)C)ccc52)C=3C#N)[B-](F)(F)[n+]2c(ccc3cc(C(C)(C)C)ccc32)C=4C#N)cc1
3. FC(F)(F)c1ccc(-c2ncc3ccccn23)cc1

**A:**
1. 0.41
2. 0.59
3. 0.04

List reported photoluminescence quantum yield for each of these molecules:
1. F[B-]1(F)n2c(cc3sc4ccccc4c32)C(c2ccc(I)cc2)=C2C=c3sc4ccccc4c3=[N+]21
2. c1ccc2cc(-c3cc(-c4nccs4)nc(-c4nccs4)c3)ccc2c1
3. CCC1=C(C)C2=C(c3cc(C(=O)Cl)cc(C4=C5C(C)=C(CC)C(C)=[N+]5[B-](F)(F)n5c(C)c(CC)c(C)c54)c3)c3c(C)c(CC)c(C)n3[B-](F)(F)[N+]2=C1C
4. CC(C)(C)NC(=O)c1cc2ccc3cccc4ccc(c1C(=O)NC(C)(C)C)c2c34
5. CO[B-]1(OC)n2c(C)cc(C)c2C(c2ccc(I)cc2)=C2C(C)=CC(C)=[N+]21

**A:**
1. 0.05
2. 0.166
3. 0.7
4. 0.39
5. 0.52

---

Provide the reported photoluminescence quantum yield of each item.
- PROCEDURE SUMMARY: photoluminescence quantum yield (fraction); solvent given as SMILES
- TEST SETTINGS: in CCCCCC

List reported photoluminescence quantum yield for each of these compounds:
1. N#CC1=c2c3cccc4cccc(c43)n2[B-](F)(F)[n+]2ccccc21
2. CC1=[N+]2C(=C(c3ccc(-c4c5ccccc5c(-c5ccccc5)c5ccccc45)cc3)c3ccc(C)n3[B-]2(F)F)C=C1
3. Cc1ccc(-n2cccc2)cc1
4. CCCCN1C(=O)C(=C/C=C/C=C/C=C2N(CCCC)c3ccccc3N2CCCC)C(=O)N(CCCC)C1=S
5. CCOC(=O)COc1ccc(/C=C/c2c(CC)c(C)c3n2[B-](F)(F)[N+]2=C(c4[nH]c(C)c(CC)c4C)c4ccccc4C2=C3C)cc1

**A:**
1. 0.75
2. 0.204
3. 0.28
4. 0.178
5. 0.74
